assayed_system: T1, Anti-CD28 Fab (SEQ ID NOs: 696, 697)
T1 construct: In the phage ELISA the Fab was biotinylated and captured on neutravidin coated plates
T1 sequence (VH, as listed by the source, chain 1 of 2): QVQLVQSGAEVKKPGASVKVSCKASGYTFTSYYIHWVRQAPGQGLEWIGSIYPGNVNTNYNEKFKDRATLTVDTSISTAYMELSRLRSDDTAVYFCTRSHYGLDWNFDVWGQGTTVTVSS
T1 sequence (VL, as listed by the source, chain 2 of 2): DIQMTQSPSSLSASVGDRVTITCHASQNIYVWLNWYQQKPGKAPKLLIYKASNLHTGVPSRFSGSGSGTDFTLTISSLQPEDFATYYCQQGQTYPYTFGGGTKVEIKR
method_notes: phage ELISA; biotinylated anti-CD28 Fab on neutravidin plate, clonal phage supernatant, anti-M13 HRP detection;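 also: crude supernatants of single phage clones picked after panning were screened for binding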
Here the recorded Anti-CD28 Fab signal (phage binding ELISA) is given for each entry.
Keep the answer to the number alone.

Use the examples below as a reference point.
- YCDGLFQLYMMKCL (Clonal phage supernatant; not shown: fused to the pIII filament protein of the bacteriophage) [Phage-1074]: 1.38
- YCDGHLMEYKAKCL (Clonal phage supernatant; not shown: fused to the pIII filament protein of the bacteriophage) [Phage-1063]: 1.41
- YCDGHAEQYMSKCL (Clonal phage supernatant; not shown: fused to the pIII filament protein of the bacteriophage) [Phage-1073]: 1.38
- YCNGHLPEYMSKCI (Clonal phage supernatant; not shown: fused to the pIII filament protein of the bacteriophage) [Phage-1068]: 1.4
- YCEGHHPWYVQKCL (Clonal phage supernatant; not shown: fused to the pIII filament protein of the bacteriophage) [Phage-1071]: 1.39

Next, consider the following binder.
Asked: Consider the binder shown here: YCAGHSAEYMSKCL (Clonal phage supernatant; not shown: fused to the pIII filament protein of the bacteriophage) [Phage-1062] What is its recorded Anti-CD28 Fab signal (phage binding ELISA)?
Given back: 1.41
